- experiment: Pharmacokinetic test of Compound 10 in mice (intravenous and intragastric)
- Format: in vivo
- conditions: mouse, plasma; intravenous administration, 1 mg/kg, male CD-1 mice; read-out: Curve Area (0-t) AUC0-last
reported_metric: AUC(0-t) (µM·h)

1. CCc1nc(OCCO)c2cc(N3C(=S)N(c4ccc(C#N)c(C(F)(F)F)c4)C(=O)C3(C)C)cc(F)c2n1 32.3

====

# Vd per entry
- experiment: Pharmacokinetic test of Compound 35 and Compound 58 in mice (intravenous and intragastric)
- Format: in vivo
- conditions: mouse, plasma; intravenous administration, 1 mg/kg, male CD-1 mice; read-out: Apparent Volume of Distribution Vdss
reported_metric: Vd (L/kg)

1) CCc1cc(=O)n2cc(N3C(=S)N(c4ccc(C#N)c(Cl)c4)C(=O)C3(C)C)cc(F)c2n1 0.248
2) CCc1cc(=O)n2cc(N3C(=S)N(c4ccc(C#N)c(C(F)(F)F)c4)C(=O)C3(C)C)cc(F)c2n1 0.667
